- target-of-assay: Epidermal growth factor receptor (Homo sapiens)
- test-protocol: compounds binding epidermal growth factor receptor – biochemical, small-molecule microarray, 635 nm fluorescence, primary screen (AID 1104);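 further: score merges 667 nm emission intensity with spot signal to noise over triplicate slides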
- setup-conditions: EGFR binding, higher = more signal
# if value of composite z-score reaches 0.1, tag y; if it stays below, tag n

1) COC(=O)[C@@]1(Cc2ccc(F)cc2)[C@H]2c3cc(C(=O)N(C)C)n(CCSCCO)c3C[C@H]2CN1C(=O)c1ccccc1 : y
2) COC(=O)C(CC#Cc1ccc2c(c1)[C@]1(C(=O)N2)[C@H](C(=O)N2CCc3cc(OC)c(OC)cc3C2)[C@H]2C(=O)O[C@H](c3ccccc3)[C@H](c3ccccc3)N2[C@@H]1c1ccc(OCCO)cc1)C(=O)OC : y
3) NC(=O)NCC#Cc1ccc2c(c1)[C@]1(C(=O)N2)[C@H](c2ccc(O)cc2)N2[C@H](c3ccccc3)[C@H](c3ccccc3)OC(=O)[C@H]2[C@@H]1C(N)=O : n
4) C=C(CCCC)/C(=C/C[C@@H](OC(=O)c1ccncc1)c1ccccc1OCCO)c1cc(C(=O)OC)ccc1OC : y
5) CCCc1cc2c(n1Cc1ccc(OC)cc1)C(C)C1CN(C(=O)c3ccccc3)C(C)(C(=O)OC)C21 (centres undefined) : n

Task: # check: composite z-score of "CCCC[C@@H](O)C1=C(COc2ccccc2)Cn2c(=O)n(-c3ccccc3)c(=O)n2[C@H]1CO" is greater than or equal to 0.1
Result: y

Task: Cool, now CCN(CC)c1ccc(N2CC=CC34O[C@@H]5/C=C\CCCOC(=O)C5[C@H]3C(=O)N(CCCCCO)[C@@H]4C2=O)cc1 (some centres undefined)
Result: n

Task: Cool, now "O=C1c2ccccc2[C@](Cc2ccccc2I)(C(=O)NCC(F)(F)F)[C@H](c2ccc(CO)cc2)N1Cc1ccccc1"
Result: n

Task: Cool, now "CC(=O)NCCCC[C@@H]1NC(=O)[C@@H]2C[C@H](C(=O)NCCCC[N+](C)(C)C)[C@H](c3cccc(OCCO)c3)N2C1=O"
Result: n

Task: Cool, now "COCC(=C=CC[C@@H](O)c1ccccc1OCCO)C[C@@H](O)COCc1ccccc1"
Result: n

Task: Cool, now C=CCC(OC(C)=O)[C@@H]1[C@@H](N(Cc2cccc3ccccc23)C(=O)c2ccc(C)cc2)c2cc(OCCCO)ccc2N1C(=O)c1ccc2ccccc2c1 (some centres undefined)
Result: y

Task: Cool, now O=C1C2C=CC(C(O)c3ccccn3)N(Nc3ccccc3)C2C(=O)N1c1ccccc1 (centres undefined)
Result: n

Task: Cool, now "C=C(/C(=C/C[C@@H](OC(=O)c1ccncc1)c1ccccc1OCCO)c1cnc2ccccc2c1)C(C)C"
Result: y

Task: Cool, now "COc1ccc(C(=O)Nc2ccc(CN3C(=O)[C@@]4(O[C@@H](CC(=O)N5Cc6ccccc6C[C@H]5CO)[C@H]([Si](C)(C)c5ccc(OC)cc5)[C@H]4C)c4ccccc43)cc2)cc1"
Result: y

###

- test-protocol: Pseudomonas biofilm growth suppression – PAO1 strain, BacTiter-Glo luminescence, LB-PBS, primary screen (AID 1144)
- setup-conditions: P. aeruginosa PAO1 biofilm, 12 h, higher = more signal
# if value of z-score reaches -1, tag 1.0; if it stays below, tag 0.0

1) COCCOC(=O)N1C(=O)[C@@]2(c3ccccc31)[C@H](c1ccccc1OCCO)N1[C@H](c3ccccc3)[C@H](c3ccccc3)OC(=O)[C@H]1[C@@H]2C(=O)N1CCc2cc(OC)c(OC)cc2C1 : 0.0
2) C[C@]12C(=O)N(CCCO)[C@@H]3C(=O)N(c4ccc(Cl)cc4)CC=CC31O[C@@H]1/C=C\CCCOC(=O)C12 (stereo partly specified) : 1.0
3) Cc1cc(C)c(C(O)C2C=CC3C(=O)N(c4ccccc4)C(=O)C3N2Nc2ccc([N+](=O)[O-])cc2)c(C)c1 (stereo unspecified) : 0.0
4) CC(C)C[C@H]1NC(=O)[C@H](C)NC(=O)[C@@]23C(=O)N[C@@H](Cc4ccccc4)C2[C@H](C)[C@@]2(C)O[C@H]2C3/C=C/C/C=C\CNC1=O (stereo partly specified) : 1.0
5) COc1cc2c(cc1OC)CN(C(=O)[C@@H]1[C@H]3C(=O)O[C@H](c4ccccc4)[C@H](c4ccccc4)N3[C@H](c3ccc(O)cc3)[C@@]13C(=O)Nc1ccc(C#CCNC(N)=O)cc13)CC2 : 1.0

Now for another entry.
Task: # check: z-score of O=C1OCCC=C[C@H]2OC34C=CCN(Cn5nnc6ccccc65)C(=O)[C@H]3N(CCCCCO)C(=O)[C@@H]4C12 (stereo partly specified) is greater than or equal to -1
Result: 0.0

###

- target-of-assay: Alpha-bungarotoxin (Bungarus multicinctus)
- test-protocol: compounds binding labelled alpha-BTX control protein – biochemical, small-molecule microarray, Alexa647 label, 635/667 nm fluorescence, artefact control for SMM control protein annotation, profiling panel (AID 1117)
- setup-conditions: alpha-BTX-A647 binding fluorescence, higher = more signal
composite z-score overview

Worked cases, composite z-score given:
1. CC1CC/C=C\[C@H]2OC34C=CCN(c5ccc(Cl)cc5)C(=O)[C@H]3N(C(CO)C(C)C)C(=O)[C@]4(C)C2C(=O)O1 (some centres undefined) : -0.59
2. COc1ccccc1CN1C(=O)c2ccccc2[C@@H](C(=O)NCC(C)C)[C@@H]1c1ccc(CO)cc1 : -0.544
3. CC(C)(C)OC(=O)CC[C@@]1(C(=O)N2CCCCC2)N=C(c2ccc(OCCCO)cc2)O[C@@H]1c1ccccc1CN=[N+]=[N-] : 2.27
4. C=CC[C@]1(C(=O)N(C)C)N=C(c2ccc(OCCCO)cc2)O[C@H]1c1ccccc1 : 1.25
5. CC(C)c1ccc(NN2C(C(O)c3cccs3)C=CC3C(=O)N(c4ccccc4)C(=O)C32)cc1 (centres undefined) : 1.01

--- query ---
Task: Lookup: composite z-score / Alpha-bungarotoxin (Bungarus multicinctus) / "COC(=O)[C@@]1(Cc2ccccc2)[C@H]2c3cc(C(=O)N4CCCC4)n(CCO)c3C[C@H]2CN1C(=O)c1ccccc1"
Result: 1.48

###

- target-of-assay: Concanavalin-A (Canavalia ensiformis) (UniProt P02866)
- Sequence (P02866 whole entry, looked up): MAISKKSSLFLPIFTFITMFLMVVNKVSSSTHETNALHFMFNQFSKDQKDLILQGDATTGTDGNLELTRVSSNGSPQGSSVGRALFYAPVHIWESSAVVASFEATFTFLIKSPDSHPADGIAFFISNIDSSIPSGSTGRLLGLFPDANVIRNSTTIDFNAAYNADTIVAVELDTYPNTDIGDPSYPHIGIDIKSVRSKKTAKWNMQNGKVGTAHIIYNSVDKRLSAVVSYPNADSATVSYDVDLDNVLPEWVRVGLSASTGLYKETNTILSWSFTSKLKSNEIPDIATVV
- test-protocol: compounds binding concanavalin A lectin – biochemical, small-molecule microarray, Alexa647 label, 635 nm, artefact control for SMM control protein annotation, primary screen (AID 1127);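 further: z combines 667 nm emission intensity with signal-to-noise across three replicate slides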
- setup-conditions: ConA-A647 binding fluorescence, higher = more signal
composite z-score overview
Give the figure only, with no unit attached.

Worked cases, composite z-score given:
1) COc1ccc(C#Cc2ccc3c(c2)[C@]2(C(=O)N3)[C@H](C(N)=O)[C@H]3C(=O)O[C@H](c4ccccc4)[C@H](c4ccccc4)N3[C@@H]2c2ccc(O)cc2)cc1 : 0.985
2) COC(=O)[C@@]1(Cc2ccc(F)cc2)[C@H]2c3cc(C(=O)N(C)C)n(Cc4ccc(C)c(F)c4F)c3C[C@H]2CN1C(=O)c1ccccc1 : 0.879
3) C=C(/C(=C/C[C@@H](OC(=O)c1ccncc1)c1ccccc1OCCO)c1cnc2ccccc2c1)C(C)C : 1.19
4) COC(=O)[C@]1(Cc2ccccc2CN=[N+]=[N-])N=C(c2ccc(OCCCO)cc2)O[C@@H]1c1ccccc1CN=[N+]=[N-] : 0.951
5) CCCC[C@@H](O)C1=C(COc2ccccc2)Cn2c(=O)n(-c3ccccc3)c(=O)n2[C@H]1CO : -0.494
6) O=C1OCCC=C[C@H]2OC34C=CCN(Cn5nnc6ccccc65)C(=O)[C@H]3N(CCCCCO)C(=O)[C@@H]4C12 (some centres not stated) : -1.55

--- query ---
Task: What value of composite z-score has been recorded for this entry: "NC(=O)[C@@H]1[C@H]2C(=O)O[C@H](c3ccccc3)[C@H](c3ccccc3)N2[C@H](c2ccccc2OCCO)[C@@]12C(=O)Nc1ccc(C#CCCO)cc12"
Result: 1.18

###

composite z-score overview
- target-of-assay: Albumin (Bos taurus)
- test-protocol: compounds binding labelled BSA control protein – biochemical, small-molecule microarray, Alexa647 label, 635/667 nm fluorescence, artefact control for SMM control protein annotation, profiling panel (AID 1118);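 further: score merges 667 nm emission intensity and signal-to-noise per printed compound spot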
- setup-conditions: BSA-A647 binding, fluorescence 635 nm, higher = more signal
Give the figure only, with no unit attached.

Worked cases, composite z-score given:
1. OCCCC1=CC(c2cccs2)N(Cc2cccc(OC(F)(F)F)c2)CC1 (centres undefined) : 0.659
2. O=C(O)[C@]1(CCS(=O)(=O)c2ccccc2)N=C(c2ccc(OCCCO)cc2)O[C@@H]1c1ccccc1 : 0.815
3. COc1ccc([Si](C)(C)[C@H]2[C@H](CCO)O[C@@]3(C(=O)N(Cc4cccc(N5CCOC5=O)c4)c4ccccc43)[C@@H]2C)cc1 : 0.688
4. C=CCOC(=O)[C@@H]1[C@H]2C(=O)O[C@H](c3ccccc3)[C@H](c3ccccc3)N2[C@H](c2ccc(OCCOC(=O)[C@H]3C[C@H]4C(=O)N[C@@H](Cc5ccccc5)C(=O)N4[C@H]3c3cccc(OCCO)c3)cc2)[C@@]12C(=O)Nc1ccc(I)cc12 : -0.868
5. COC(=O)[C@H]1N=C(c2ccc(OCCCO)cc2)O[C@H]1c1ccccc1CN=[N+]=[N-] : 0.394

Task: Lookup: composite z-score / Albumin (Bos taurus) / CN1C(=O)C2C=CC(C(O)COCc3ccccc3)N(Nc3ccccc3)C2C1=O (centres undefined)
Result: 0.898

Task: Cool, now "CC(C)N1C(=O)c2ccccc2[C@](C)(C(=O)O)[C@@H]1c1ccc(CO)cc1"
Result: 0.401

Task: Cool, now "COc1ccc(C#Cc2ccc3c(c2)[C@]2(C(=O)N3)[C@H](C(=O)O)[C@H]3C(=O)O[C@H](c4ccccc4)[C@H](c4ccccc4)N3[C@@H]2c2ccc(OCCO)cc2)cc1"
Result: 0.92

Task: Cool, now "COc1ccc([Si](C)(C)[C@@H]2[C@@H](CC(=O)N(CCO)Cc3ccccc3)O[C@]3(C(=O)N(C)c4c(Br)cc(C)cc43)[C@H]2C)cc1"
Result: 0.597

Task: Cool, now "CC1=C2[C@@H](CCc3ccccc3)OB(O)C[C@@H]2[C@@H]2C(=O)C=CC(=O)[C@@H]2C1"
Result: 0.393

Task: Cool, now N#Cc1ccc(NN2C(C(O)c3ccco3)C=CC3C(=O)N(c4ccccc4)C(=O)C32)cc1 (centres undefined)
Result: 0.488

Task: Cool, now "C[N+](C)(C)CCCC[C@@H]1NC(=O)[C@@H]2C[C@H](C(=O)O)[C@H](c3cccc(OCCO)c3)N2C1=O"
Result: -1.33

Task: Cool, now "CN(C)CCCCNC(=O)[C@H]1C[C@H]2C(=O)N[C@@H](CCCC[N+](C)(C)C)C(=O)N2[C@H]1c1cccc(OCCO)c1"
Result: -0.355

Task: Cool, now "COCCOC(=O)N1C(=O)[C@@]2(c3cc(C#CC4(O)CCCCCC4)ccc31)[C@H](C(=O)N1CCN(c3ncccn3)CC1)[C@H]1C(=O)O[C@H](c3ccccc3)[C@H](c3ccccc3)N1[C@@H]2c1ccc(O)cc1"
Result: 0.886

Cited source: PubChem BioAssay
